Target: T1, recombinant heavy chain Protein S (human, UniProt P07225 42-296)
T1 construct: Fragment of Protein S spanning amino acids 42-296, expressed and purified from HEK293 cells; also called Protein S heavy chain; heavy chain of Protein S
T1 sequence: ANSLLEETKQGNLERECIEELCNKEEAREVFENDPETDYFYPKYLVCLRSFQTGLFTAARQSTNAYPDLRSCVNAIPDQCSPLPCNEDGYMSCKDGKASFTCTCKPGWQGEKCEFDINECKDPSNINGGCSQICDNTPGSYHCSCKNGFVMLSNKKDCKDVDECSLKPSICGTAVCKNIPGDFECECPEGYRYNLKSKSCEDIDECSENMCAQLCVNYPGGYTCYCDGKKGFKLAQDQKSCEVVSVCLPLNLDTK
Assay: ELISA; plate coated with recombinant Protein S heavy chain; 1 mM CaCl2
Reported property: Binding to heavy chain (OD)
Field format: number, assumed OD, no unit text.

>  <Binder>
Antibody 31 (antibody, V domains shown, Human variable region with rat Fc) VH: QVQLQESGPGLVKPSETLSLTCTVSGGSISGNYWSWIRQPPGKGLEWIGYIYYSGSTNYNPSLKSRVTISVDTSKNQFSLKLSSVTAADTAVYYCARDLDYFTWGAYSDWYFDLWGRGTLVTVSS VL: DIQMTQSPSSLSASVGDRVTITCRASQSISTFLNWYQQKPGKAPKLLIYATSSLRSGVPSRFSGSGSGTDFTLTISSLQPEDFAIYYCQQSYSTPRTFGQGTQVEIK

>  <Binding to heavy chain (OD)>
0.13

$$$$
>  <Binder>
Antibody 33 (antibody, V domains shown, Human variable region with rat Fc) VH: QVQLQQSGPGLVKPSQTLSLTCAISGDSVSNNNAAWNWIRQSPSRGLEWLGGTYYRSKWYNDYAVSVKSRIIINPVTSKNQFSLQLNSVTPEDTAVYYCARGSSWYRFFDYWGQGTLVTVSS VL: EIVLTQSPGTLSLSPGERATLSCRASQSVGSSYLAWYQQKPGQAPRLLISGASGRATGIPDRFSGSGSGTDFTLTISRLEPEDFTVYYCQQYGSSPYTFGQGTKLEIK

>  <Binding to heavy chain (OD)>
0.11

$$$$

Consider Antibody 42 (antibody, V domains shown, Human variable region with rat Fc) VH: QVQLVQSGSEVKKPGASVKVSCKASGYTFTNYYIHWVRQAPGQGLEWMGIITPSGGTTSYAQKFQGRVTMTRDTSTNTVYMGLSSLRSEDTAMYYCARAGVQLDRRGWFDPWGQGTLVTVSS VL: SYELTQPPSVSVSPGQTASITCSGDKLGDKYVFWYQQKPGQSPVLVIYQDSKRPSGIPERFSGSNSGNTATLTISGTQTMDEADYYCQAWDSSTVGFGGGTKLAVL . Its measured Binding to heavy chain (OD) is 0.11

Attribution: patent US20230083243A1
